Procedure details: in vivo
Condition info: Balb/c, mouse, ip, 2 mg/kg
Readout label: Tmax
Don't forget the unit after the value.

Ask | Quick one: Tmax of NCCCCn1c(-c2ccccc2)c(F)c2ccc(C(=O)c3cc(CC(=O)NO)c(-c4cccc(N)c4)s3)cc21 ?
Reply | 60 min

Ask | Quick one: Tmax of NCCCCn1c(-c2ccccc2)c(F)c2ccc(C(=O)c3cc(CC(=O)NO)c(-c4ccc(O)cc4)s3)cc21 [Inhibitor E2] ?
Reply | 30 min

----------
Test target: BoNTAe (Clostridium botulinum)
Procedure details: biochemical
Condition info: inhibitor concentration 1 μM; read-out: % inhibition of BoNTAe
Where a name gives a salt, the structure may show the parent alone.
Readout label: inhibition at 1 µM (%)
Only the number, expressed in %, is required.

Examples with answers:
Compound	inhibition at 1 µM, %
NCCCCCCCN(CCCCCCCN)C(=O)c1cc(CCC(=O)NO)c(CCC(CO)(c2ccccc2)c2ccccc2)n1Cc1ccccc1 [Inhibitor E4b]	79
NCCCCCCCCCCN(CCCCCCCCCCN)C(=O)c1ccc(-c2cc3ccc(C(=O)c4cc(CC(=O)NO)c(-c5cccc(O)c5)s4)cc3n2CCCCN)cc1 [Inhibitor E1c]	75

Ask | Quick one: inhibition at 1 µM of O=C(CCc1cc(C(=O)Nc2cc(CCCCCCN3C(=O)c4ccccc4C3=O)c(OCCCCCCN3C(=O)c4ccccc4C3=O)c(CCCCCCN3C(=O)c4ccccc4C3=O)c2)n(Cc2ccccc2)c1C#CC(O)(c1ccccc1)c1ccccc1)NO [Inhibitor E6, trifluoroacetic acid salt] ?
Reply | 50

----------
Each record here notes measured inhibition at 1 µM.
Test target: BoNTAe (Clostridium botulinum, UniProt P0DPI0)
Sequence (P0DPI0 2-448 limits assumed): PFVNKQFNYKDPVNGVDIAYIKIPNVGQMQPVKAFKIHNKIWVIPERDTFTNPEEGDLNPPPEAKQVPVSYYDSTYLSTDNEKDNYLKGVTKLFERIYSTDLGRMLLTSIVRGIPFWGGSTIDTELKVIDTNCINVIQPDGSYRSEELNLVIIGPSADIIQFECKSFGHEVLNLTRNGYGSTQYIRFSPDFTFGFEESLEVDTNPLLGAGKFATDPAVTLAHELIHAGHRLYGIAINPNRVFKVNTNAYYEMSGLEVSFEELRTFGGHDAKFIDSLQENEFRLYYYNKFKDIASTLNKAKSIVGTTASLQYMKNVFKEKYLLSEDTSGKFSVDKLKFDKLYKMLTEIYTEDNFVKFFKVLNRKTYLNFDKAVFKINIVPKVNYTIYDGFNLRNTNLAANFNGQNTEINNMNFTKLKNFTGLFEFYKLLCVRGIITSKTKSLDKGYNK
Procedure details: biochemical
Condition info: inhibitor concentration 1 μM; read-out: % inhibition of BoNTAe
Where a name gives a salt, the structure may show the parent alone.
Only the number, expressed in %, is required.

Examples with answers:
Compound	Test target	Recorded measurement
NCCCCCCN(CCCCCCN)C(=O)c1ccc(-c2cc3ccc(C(=NO)c4cc(CC(=O)NO)c(-c5cccc(O)c5)s4)cc3n2CCCCN)cc1 [Inhibitor E1f]	BoNTAe (Clostridium botulinum, UniProt P0DPI0)	47
NCCCCCCCN(CCCCCCCN)C(=O)c1cc(CCC(=O)NO)c(CCC(O)(c2ccccc2)c2ccccc2)n1Cc1ccccc1 [Inhibitor E4]	BoNTAe (Clostridium botulinum, UniProt P0DPI0)	52

Ask | Quick one: inhibition at 1 µM of O=C(CCc1cc(C(=O)Nc2cc(CCCCCCN3C(=O)c4ccccc4C3=O)c(OCCCCCCCN3C(=O)c4ccccc4C3=O)c(CCCCCCN3C(=O)c4ccccc4C3=O)c2)n(Cc2ccccc2)c1C#CC(O)(c1ccccc1)c1ccccc1)NO [Inhibitor E6b, trifluoroacetic acid salt] ?
Reply | 59

----------
Test target: BoNTAe (Clostridium botulinum)
Procedure details: biochemical
Condition info: read-out: % inhibition of BoNTAe
Readout label: inhibition at 1 µM

Compound	Test target	Recorded measurement
NCCCCCCCCCCCN(CCCCCCCCCCCN)C(=O)c1ccc(-c2cc3ccc(C(=O)c4cc(CC(=O)NO)c(-c5cccc(O)c5)s4)cc3n2CCCCN)cc1 [Inhibitor E1d]	BoNTAe (Clostridium botulinum)	68%
NCCCCCCCCCOc1c(CCCCCCN)cc(NC(=O)c2cc(CCC(=O)NO)c(CCC(N)(c3ccccc3)c3ccccc3)n2Cc2ccccc2)cc1CCCCCCN [Inhibitor E6c]	BoNTAe (Clostridium botulinum)	55%
NCCCCCCCCN(CCCCCCCCN)C(=O)c1ccc(-c2cc3ccc(C(=NO)c4cc(CC(=O)NO)c(-c5cccc(O)c5)s4)cc3n2CCCCN)cc1 [Inhibitor E1h]	BoNTAe (Clostridium botulinum)	60%

Ask | Quick one: inhibition at 1 µM of NCCCCCCCCCCCCN(CCCCCCCCCCCCN)C(=O)c1ccc(-c2cc3ccc(C(=O)c4cc(CC(=O)NO)c(-c5cccc(O)c5)s4)cc3n2CCCCN)cc1 [Inhibitor E1e] ?
Reply | 49%

Ask | Quick one: inhibition at 1 µM of NCCCCCN(CCCCCN)C(=O)c1ccc(-c2cc3ccc(C(=NO)c4cc(CC(=O)NO)c(-c5cccc(O)c5)s4)cc3n2CCCCN)cc1 [Inhibitor E1g] ?
Reply | 48%

----------
Read-out record for UniProt P0DPI0: pKi
Scale: pKi equals -log10([C]), with [C] in mol/L.

Ask | API: value(readout= pKi, system= UniProt P0DPI0, query= NCCCCCCCN(CCCCCCCN)C(=O)c1cc(CCC(=O)NO)c(CCC(O)(c2ccccc2)c2ccccc2)n1Cc1ccccc1 )
Reply | 6.12

Ask | API: value(readout= pKi, system= UniProt P0DPI0, query= NCCCCCCCCCCN(CCCCCCCCCCN)C(=O)c1ccc(-c2cc3ccc(C(=O)c4cc(CC(=O)NO)c(-c5cccc(O)c5)s4)cc3n2CCCCN)cc1 )
Reply | 6.59

Ask | API: value(readout= pKi, system= UniProt P0DPI0, query= NCCCCCCCCCCCN(CCCCCCCCCCCN)C(=O)c1ccc(-c2cc3ccc(C(=O)c4cc(CC(=O)NO)c(-c5cccc(O)c5)s4)cc3n2CCCCN)cc1 )
Reply | 6.47

Ask | API: value(readout= pKi, system= UniProt P0DPI0, query= NCCCCCCCN(CCCCCCCN)C(=O)c1cc(CCC(=O)NO)c(CCC(CO)(c2ccccc2)c2ccccc2)n1Cc1ccccc1 )
Reply | 6.68

Ask | API: value(readout= pKi, system= UniProt P0DPI0, query= NCCCCCCCCCCCCN(CCCCCCCCCCCCN)C(=O)c1ccc(-c2cc3ccc(C(=O)c4cc(CC(=O)NO)c(-c5cccc(O)c5)s4)cc3n2CCCCN)cc1 )
Reply | 6.44
